The reported measurements were obtained from PubChem BioAssay AID504408.

- PROTOCOL TEXT: HSF-1 activators, primary screen, NIH3T3-HGL cells, MG132 stress, luminescence, single point (AID 504408);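 also: 0% = median of the neutral control wells and 100% = twice that signal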
- MEASUREMENT CONTEXT: NIH3T3-HGL HSF-1 luciferase reporter, MG132, 8 h; at 9 µM; stronger effect = higher value; 100% = twice DMSO control signal
The campaign covered roughly 300,000 compounds. About 5,200 (1.7%) were called active. The entries come from a sample that favours actives as a whole.
ASSAY READOUT: activation (%)
The reply should contain only the number, in %.

Prompt line: Recorded activation for COc1ccc(OCCCC(=O)OC(C)C(=O)Nc2ccccc2[N+](=O)[O-])cc1 (stereo not drawn) , please?
Response line: 10.9

Prompt line: Please do the same for COc1cc(C2C(C(=O)c3cccs3)=C(O)C(=O)N2CCN2CCOCC2)ccc1OCCC(C)C (stereo not drawn) as well.
Response line: -4.43

Prompt line: Please do the same for Cc1cc(C)c(C)c(S(=O)(=O)Nc2cccnc2)c1C as well.
Response line: -8.55

Prompt line: Please do the same for Nc1ccc(C(=O)N2CCN(S(=O)(=O)c3ccc(Cl)cc3)CC2)cc1[N+](=O)[O-] as well.
Response line: 17.9

Prompt line: Please do the same for CCC1CCC/C1=N\NC(=O)c1ccc(Cl)cc1 (stereo not drawn) as well.
Response line: 9.99

Prompt line: Please do the same for COC(=O)c1ccc(SCc2ccccc2)nc1 as well.
Response line: 18.6

Prompt line: Please do the same for Cc1ccc(O)c(NC(=O)c2cc(-c3ccco3)on2)c1 as well.
Response line: 113

Prompt line: Please do the same for Cc1ccc(NC(=S)Nc2ncccc2C)c(C)c1 as well.
Response line: 56.7

Prompt line: Please do the same for O=c1[nH]c(CSc2ncc(-c3ccc(F)cc3)n2Cc2ccco2)nc2ccccc12 as well.
Response line: 41.8

Prompt line: Please do the same for Cc1ccc(O)c(NC(=S)NC(=O)COc2ccc(Br)cc2)c1 as well.
Response line: 12.4

Prompt line: Please do the same for Cc1ccc(NC(=S)NCc2ccccc2Cl)c(C)c1 as well.
Response line: 5.6

Prompt line: Please do the same for Nc1nonc1-n1nnc(C(=O)N/N=C/c2ccccc2O)c1CN1CCCC1 as well.
Response line: 12.4

Prompt line: Please do the same for O=C(O)C1C2C=CC(C2)C1C(=O)NCc1ccccc1 (stereo not drawn) as well.
Response line: -13

Prompt line: Please do the same for Cc1cccc(C)c1OCCN1CCOCC1 as well.
Response line: 3.56

Prompt line: Please do the same for Cc1cc2nc(SCCN3CCOCC3)[nH]c2cc1C as well.
Response line: 53.2

Prompt line: Please do the same for Cc1ccc(C)c(NC(=O)COC(=O)Cn2c(C)csc2=O)c1 as well.
Response line: -8.55

Prompt line: Please do the same for Cc1ccc(C)c(OCCC(=O)OCC(=O)NC(=O)NCc2ccccc2)c1 as well.
Response line: -2.69

Prompt line: Please do the same for CC(C)(C)C(=O)COC(=O)c1cc(S(=O)(=O)N2CCCCC2)ccc1N1CCOCC1 as well.
Response line: -1.57

Prompt line: Please do the same for O=C(c1ccc(Cl)c(S(=O)(=O)N2CCCCC2)c1)N1CCCCCC1 as well.
Response line: -11.6

Prompt line: Please do the same for Cc1cc(NC(=O)CSc2nc3cc(Cl)ccc3c(=O)n2Cc2ccco2)no1 as well.
Response line: 1.94

Prompt line: Please do the same for Cc1ccc(F)c(NC(=O)CCOc2ccccc2C)c1 as well.
Response line: 7.19

Prompt line: Please do the same for CCn1c2ccc(F)cc2c2nnc(SCCN3CCOCC3)nc21 as well.
Response line: -5.84

Prompt line: Please do the same for O=C(Nc1ncccc1O)c1ccc(S(=O)(=O)N2CCCCCC2)cc1 as well.
Response line: 3.69
